Values from patent US20240116985A1

NanoBRET Abs IC50 reference
- target.desc: T1, B-cat-Halo (beta-catenin HaloTag fusion expressed in HEK293 cells) (UniProt P35222 1-781)
- T1 sequence (looked up): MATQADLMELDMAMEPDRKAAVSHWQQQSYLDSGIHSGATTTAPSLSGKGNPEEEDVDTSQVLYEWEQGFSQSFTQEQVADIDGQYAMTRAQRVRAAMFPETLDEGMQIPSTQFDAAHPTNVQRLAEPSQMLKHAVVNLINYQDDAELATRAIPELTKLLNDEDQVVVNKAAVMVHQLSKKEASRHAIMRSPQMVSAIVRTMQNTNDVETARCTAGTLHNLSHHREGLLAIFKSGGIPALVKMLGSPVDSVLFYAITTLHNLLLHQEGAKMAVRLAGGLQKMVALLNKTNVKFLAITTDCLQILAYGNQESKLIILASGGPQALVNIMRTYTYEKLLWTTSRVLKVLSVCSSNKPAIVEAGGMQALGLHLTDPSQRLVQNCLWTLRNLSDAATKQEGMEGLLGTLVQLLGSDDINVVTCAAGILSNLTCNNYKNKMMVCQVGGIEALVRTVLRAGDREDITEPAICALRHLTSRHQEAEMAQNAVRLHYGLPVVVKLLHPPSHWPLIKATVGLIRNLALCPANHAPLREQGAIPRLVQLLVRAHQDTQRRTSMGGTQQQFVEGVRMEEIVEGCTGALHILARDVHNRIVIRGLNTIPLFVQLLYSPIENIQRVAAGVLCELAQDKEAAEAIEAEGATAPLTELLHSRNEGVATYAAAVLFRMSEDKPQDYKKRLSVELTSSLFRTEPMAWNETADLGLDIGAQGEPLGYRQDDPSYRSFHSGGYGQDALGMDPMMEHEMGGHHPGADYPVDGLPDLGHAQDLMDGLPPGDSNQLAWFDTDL
- experiment.notes: cell-based or functional assay
Starred links: 1 amine or outer side, 2 acyl side, 3 side chain; linkers in the order of their positions; H or OH if unused. Positions of bridges follow the written chain, without caps; N, C: chain ends. Non-standard residues stand in square brackets, D forms with d. Primed or numbered codes have the meaning given here. PyrS2″ = (S)-3-amino-1-((pent-4-en-1-yloxy)carbonyl)pyrrolidine-3-carboxylic acid (stapling residue), C=CCCCOC(=O)N1CC[C@@](N[*:1])(C(=O)[*:2])C1; B5(4) = 2,2-bis(4-pentenyl)glycine = 2-amino-2-(pent-4-en-1-yl)hept-6-enoic acid (stitching residue), C=CCCCC(CCCC=C)(N[*:1])C(=O)[*:2]; PyrS2 = (S)-3-amino-1-((pent-4-en-1-yloxy)carbonyl)pyrrolidine-3-carboxylic acid, C=CCCCOC(=O)N1CC[C@@](N[*:1])(C(=O)[*:2])C1; MorphAsn = (S)-2-amino-4-morpholino-4-oxobutanoic acid, O=C(C[C@H](N[*:1])C(=O)[*:2])N1CCOCC1; B5 = 2-amino-2-(pent-4-en-1-yl)hept-6-enoic acid, C=CCCCC(CCCC=C)(N[*:1])C(=O)[*:2]; Me2Asn = listed as N4-methyl-L-asparagine, CNC(=O)C[C@H](N[*:1])C(=O)[*:2]; Phe(3-COOH) = N[C@@H](Cc1cccc(C(=O)O)c1)C(=O)O; Phe(2-CF3) = N[C@@H](Cc1ccccc1C(F)(F)F)C(=O)O; Bta = N[C@@H](Cc1csc2ccccc12)C(=O)O; αAllylPro = C=CC[C@@]1(C(=O)O)CCCN1; tBuAla = CC(C)(C)C[C@H](N)C(=O)O; 3Thi = N[C@@H](Cc1ccsc1)C(=O)O; Cha = N[C@@H](CC1CCCCC1)C(=O)O; Aib = CC(C)(N)C(=O)O

Recorded results for 4 binders are shown here.
| binder | NanoBRET Abs IC50 |
| --- | --- |
| Ac-[αAllylPro]N[Cha][B5]DQQAFL[PyrS2]F[Bta][MorphAsn]-NH2 (staple 1-4, 4-11) [I-2504] | > 20 µM |
| Ac-[αAllylPro]N[Cha][B5]DQ[Me2Gln]AFL[PyrS2]F[Bta][MorphAsn]-NH2 (staple 1-4, 4-11) [I-2501] | > 20 µM |
| Ac-[αAllylPro]D[tBuAla][B5]NT[Aib]AFN[PyrS2][3Thi][Bta][Me2Asn]-NH2 (staple 1-4, 4-11) [I-2494] | > 20 µM |
| Ac-[αAllylPro]D[tBuAla][B5(4)]D[Phe(3-COOH)]QAFL[PyrS2″][Phe(2-CF3)][7FBztA]A-NH2 (staple 1-4, 4-11) [I-2489] | 7.4 µM |

# ---- query binder ----
Give its NanoBRET Abs IC50 value. Item: Ac-[αAllylPro]D[tBuAla][B5(4)]D[Phe(3-COOH)]AAFL[PyrS2″][Phe(2-CF3)][7FBztA]Q-NH2 (staple 1-4, 4-11) [I-2488]
3.6 µM
